# SYSTEM NAME: GHSR1a (Homo sapiens)
# Sequence (Q92847 whole entry): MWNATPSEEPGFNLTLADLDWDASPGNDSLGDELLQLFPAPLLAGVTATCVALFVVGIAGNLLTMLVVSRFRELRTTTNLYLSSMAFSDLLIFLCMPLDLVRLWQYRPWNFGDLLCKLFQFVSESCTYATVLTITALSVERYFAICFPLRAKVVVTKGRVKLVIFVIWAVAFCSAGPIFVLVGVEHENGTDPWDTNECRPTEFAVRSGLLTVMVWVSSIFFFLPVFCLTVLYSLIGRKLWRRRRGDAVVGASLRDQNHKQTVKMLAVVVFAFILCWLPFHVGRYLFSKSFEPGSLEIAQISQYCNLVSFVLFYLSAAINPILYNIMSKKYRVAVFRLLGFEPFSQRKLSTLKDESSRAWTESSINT
# MEASUREMENT PROTOCOL: Calcium FLIPR assay, GHSR-1a agonism
# EXPERIMENTAL CONTEXT: HEK293/GHSR1a cells
ASSAY METRIC: EC50

• C#Cc1ccc(C(CC2CC2)NC(=O)N(OCC)C2CCN(C)CC2)c(Cl)c1Cl (centres unmarked) = 45 nM
• CC(NC(=O)N(C)C1CCN(C)CC1)c1ccc(-c2cncc(F)c2)c(Cl)c1Cl (centres unmarked) = > 30000 nM

Per the reported GHSR1a (Homo sapiens) data, CC(NC(=O)N(C)C1CCN(C)CC1)c1ccc(I)c(Cl)c1Cl (centres unmarked) has EC50 of 6 nM

Per the reported GHSR1a (Homo sapiens) data, CC(NC(=O)N(C)C1CCN(C)CC1)c1ccc(-c2cnc3ccccc3n2)c(Cl)c1Cl (centres unmarked) has EC50 of > 30000 nM

Per the reported GHSR1a (Homo sapiens) data, CC(NC(=O)N(O)C1CCN(C)CC1)c1ccc(-c2cnccn2)c(Cl)c1Cl (centres unmarked) has EC50 of 13 nM

Per the reported GHSR1a (Homo sapiens) data, CON(C(=O)NC(CC1CC1)c1ccc(-c2cnccn2)c(Cl)c1Cl)C1CCN(C)CC1 (centres unmarked) has EC50 of > 30000 nM

Per the reported GHSR1a (Homo sapiens) data, CC(NC(=O)N(C)C1CCN(C)CC1)c1ccc(-c2csc(N)n2)c(Cl)c1Cl (centres unmarked) has EC50 of 10 nM
